Collected fold change (FC) values appear next to each entry.
tested on: Human immunodeficiency virus 1; assay: Antiviral activity against HIV1 B26 harboring protease L33F, K45I, M46I, I50V, A71V and V82F mutant infected in human MT4 cells assessed as inhibition of virus-induced cell death after 5 days by MTT assay relative to wild type HIV1 pNL4-3; type: functional

Worked cases, fold change (FC) given:
{"COMPOUND": "COC(=O)N[C@H](C(=O)N[C@@H](Cc1ccccc1)C[C@H](O)[C@H](Cc1ccc(-c2ccc(O)cc2)cc1)NC(=O)[C@@H](NC(=O)OC)C(C)(C)C)C(C)(C)C", "MEASURED ENDPOINT": "fold change (FC)", "ENDPOINT RESULT": 3}
{"COMPOUND": "COC(=O)N[C@H](C(=O)N[C@@H](Cc1ccccc1)C[C@H](O)[C@H](Cc1ccc(-c2cncc(F)c2)cc1)NC(=O)[C@@H](NC(=O)OC)C(C)(C)C)C(C)(C)C", "MEASURED ENDPOINT": "fold change (FC)", "ENDPOINT RESULT": 3}

q: So what's the measured fold change (FC) for this one? COC(=O)N[C@H](C(=O)N[C@@H](Cc1ccccc1)C[C@H](O)[C@H](Cc1ccc(-c2cccnc2)cc1)NC(=O)[C@@H](NC(=O)OC)C(C)(C)C)C(C)(C)C
a: 3

q: Param item = COC(=O)N[C@H](C(=O)N[C@@H](Cc1ccccc1)C[C@H](O)[C@H](Cc1ccc(-c2ccnc(F)c2)cc1)NC(=O)[C@@H](NC(=O)OC)C(C)(C)C)C(C)(C)C ; retrieve measured fold change (FC).
a: 10

q: Can you share its fold change (FC)? I mean this compound: COC(=O)N[C@H](C(=O)N[C@@H](Cc1ccccc1)C[C@H](O)[C@H](Cc1ccc(-c2cccc(N)c2)cc1)NC(=O)[C@@H](NC(=O)OC)C(C)(C)C)C(C)(C)C
a: 3

q: Look at this compound and give its reported fold change (FC). COC(=O)N[C@H](C(=O)N[C@@H](Cc1ccccc1)C[C@H](O)[C@H](Cc1ccc(-c2ccncc2)cc1)NC(=O)[C@@H](NC(=O)OC)C(C)(C)C)C(C)(C)C
a: 3
